Assay: qHTS assay for identifying genotoxic compounds that show differential cytotoxicity against isogenic chicken DT40 cell lines with known DNA damage response pathways - Rad54/Ku70 mutant cell line (AID 743015); note: nearly all actives have a fitted effect of over 60% in size
Settings: DT40 Rad54/Ku70 mutant viability, CellTiter-Glo, 40 h; series mostly up to 66.8 µM
Records with an inconclusive call do not appear. The source made the active and inactive calls. Calls come from the whole dose curve; as a rule, active = well fitted cell-killing curve with a large enough effect in the repeat runs; inconclusive = weak or mixed curves; inactive = no such curve, though single readings can be large or run the other way.
Lab note: assign the record to one of active, inactive

Answered examples (4):
{"columns": ["molSmiles", "class"],
 "data": [
  ["CC1(C)CCC(C)(C)c2cc(C(=O)Nc3ccc(C(=O)O)cc3)ccc21", "active"],
  ["CCCCCCCCCCCC[N+](C)(C)CCCCCCCCCCCC", "active"],
  ["CC(C)n1nc(-c2cc3cc(O)ccc3[nH]2)c2c(N)ncnc21", "active"],
  ["CCCCCCCCCCCCCCCS(=O)(=O)Oc1ccccc1", "inactive"]
]}

Input line: Status in this test for Cc1cc(CCN2CCN(c3nsc4ccccc34)CC2)cc2c1NC(=O)CC2(C)C ?
Output line: active

Input line: Status in this test for CO[Si](CCCNc1ccccc1)(OC)OC ?
Output line: active

Input line: Status in this test for CCc1cc(SCc2sc(-c3ccc(C(F)(F)F)cc3)nc2CN2CCN(c3ccc(OC)cc3)CC2)ccc1OCC(=O)O ?
Output line: active

###

Experiment: qHTS assay to identify small molecule antagonists of the estrogen related receptor signaling pathway with the pleiotropic PPARgamma coactivator (PGC) from Tox21 10K library - cell viability counter screen (AID 1224840); note: nearly all actives have a fitted effect of over 40% in size; note: potency is the fitted concentration of half-maximal effect
Settings: PGC/ERR reporter cells viability, CellTiter-Fluor, 17.5 h; series mostly up to 92.4 µM
Results filed as inconclusive are left out. Active and inactive are the calls of the source. The call rests on the fitted dose curve; in most records, active means well fitted cell-killing curve with a large enough effect in the repeat runs (not every such curve was filed as active); inconclusive means weak or mixed curves, or effect the other way; inactive means no such curve, though single readings can be large or run the other way.
parameter: Potency

Would you please look over these solved cases?
{"columns": ["molSmiles", "Potency"],
 "data": [
  ["Cc1cccc2c1cc1ccc3cccc4ccc2c1c34", "inactive"],
  ["OC1(c2ccc(Cl)c(C(F)(F)F)c2)CCN(CCCC(c2ccc(F)cc2)c2ccc(F)cc2)CC1", "18.8 µM (active)"],
  ["CCCCCCCCCCCCc1ccc(O)cc1", "48.6 µM (active)"],
  ["O=C(Nc1cccc(C(F)(F)F)c1)c1cc(Br)cc(Br)c1O", "6.86 µM (active)"],
  ["CCCCCCCCCCCCCCCC(=O)OC[C@H](O)[C@H]1OC(=O)C(O)=C1O", "inactive"],
  ["CC(C)CCCCCCCCCCCCCCC(=O)O", "inactive"],
  ["CN(C)CCCOC1(Cc2ccccc2)CCCCCC1", "inactive"],
  ["CCCCCCCC(=O)[O-].CCCCCCCC(=O)[O-].[Zn+2]", "inactive"],
  ["N=C1N=C(N)c2cc3ccccc3cc21", "27.3 µM (active)"],
  ["[Cl][Au]([Cl])[Cl]", "7.7 µM (active)"]
]}

Hi, could you look up Potency for each item in my list?
1. O=C(Nc1cccc(Cl)c1)OCC#CCCl
2. CN(C)[C@@H]1C(=O)C(C(N)=O)=C(O)[C@@]2(O)C(=O)C3=C(O)c4c(O)ccc(Cl)c4[C@@H](O)[C@H]3C[C@@H]12

Output line:
1: 48.6 µM (active); 2: inactive

###

Experiment: qHTS assay to identify small molecule antagonists of the constitutive androstane receptor (CAR) signaling pathway - cell viability counter screen (AID 1224837); note: nearly all actives have a fitted effect of over 45% in size
Conditions: HepG2-CYP2B6-hCAR viability, CellTiter-Fluor, 23 h, co-treated with 50 nM CITCO; series mostly up to 92.4 µM
Inconclusive results are not listed. The source made the active and inactive calls. The call rests on the fitted dose curve; in most records, active means well fitted cell-killing curve with a large enough effect in the repeat runs; inconclusive means weak or mixed curves, or effect the other way; inactive means flat fitted curve, though single readings scatter.
Lab note: assign the record to one of TRUE (active), FALSE (inactive)

Answered examples (2):
{"columns": ["compound", "class"],
 "data": [
  ["Cc1ccc(O)c2ncccc12", "TRUE"],
  ["Fc1ccc([C@@H]2CCNC[C@H]2COc2ccc3c(c2)OCO3)cc1", "FALSE"]
]}

# evaluate next
Input line: Status in this test for N#CC1(c2ccc(F)cc2)CCC(=O)CC1 ?
Output line: FALSE
